B1: WEE1 (parent)
chain: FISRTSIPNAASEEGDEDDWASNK

Variants of: B1
Assay Overview: protein stability index of a GFP-peptide fusion (GPS, HEK-293T) (PSI 1-6); higher = more stable;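 also: lentivirally expressed fusions sorted by FACS into six bins by GFP to DsRed ratio, PSI derived from sequencing read proportions per bin multiplied by bin number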
Condition Summary: c terminus: a fixed tail appended
Think of 4 as a floor: if protein stability index stands on it or above, it is fulfilled; beneath it, not fulfilled.

Sequence Data	Cat
FISRASIPNAASEEGDEDDWASNK [T5A]	fulfilled

Ask: Assess whether reported protein stability index for FISETSIPNAASEEGDEDDWASNK [R4E] sits at 4 or higher.
Reply: fulfilled

Ask: Given FISRTSQPNAASEEGDEDDWASNK [I7Q] , state whether its protein stability index is at least 4.
Reply: fulfilled

Ask: Evaluate FISRTSIPNAASEEGDEYDWASNK [D18Y] : protein stability index at minimum 4?
Reply: not fulfilled

Ask: Has FISRTSIPNAASVEGDEDDWASNK [E13V] a recorded protein stability index greater than or equal to 4?
Reply: not fulfilled

Ask: Check this variant for protein stability index at or above 4: FISRTSAPNAASEEGDEDDWASNK [I7A]
Reply: fulfilled

Ask: Is the recorded value of protein stability index equal to or greater than 4 for this variant? FISRTSIPNAASEEGDEDSWASNK [D19S]
Reply: not fulfilled

Ask: Test whether the variant FISRTSIPNAASEEGDQDDWASNK [E17Q] records protein stability index of 4 or higher.
Reply: not fulfilled

Ask: Determine whether this variant has protein stability index no lower than 4: LISRTSIPNAASEEGDEDDWASNK [F1L]
Reply: fulfilled

Ask: Could you tell me if the measured protein stability index of FISRTLIPNAASEEGDEDDWASNK [S6L] reaches 4 or more?
Reply: not fulfilled

Ask: For this variant, is measured protein stability index 4 or higher? FDSRTSIPNAASEEGDEDDWASNK [I2D]
Reply: fulfilled

Ask: Is it the case that PISRTSIPNAASEEGDEDDWASNK [F1P] has protein stability index reaching or exceeding 4?
Reply: fulfilled

Ask: State whether the measured protein stability index reaches 4, counting equality as reaching it, for FISRTSIHNAASEEGDEDDWASNK [P8H]
Reply: not fulfilled

Ask: For this variant, is measured protein stability index 4 or higher? FISRTSIPNAAKEEGDEDDWASNK [S12K]
Reply: not fulfilled

Ask: I'd appreciate it if you could say whether FISRTSIPNAASEEADEDDWASNK [G15A] has protein stability index at least equal to 4.
Reply: fulfilled

Ask: Kindly determine if protein stability index recorded for FISRTSIPNGASEEGDEDDWASNK [A10G] is above or exactly 4.
Reply: fulfilled

Ask: Hi team, for FISRTSIPNAASEEGDEDDWASNC [K24C] , is the recorded protein stability index at or above 4?
Reply: fulfilled
